All values here come from PubChem BioAssay AID488969.

# System: Metabotropic glutamate receptor 8 (Rattus norvegicus)
# Method: mGluR8 Gi/Go-coupled signaling modulation – cell-based, rat, thallium flux, HTS, primary screen (AID 488969)
# Conditions Used: HEK293 rat mGluR8, GIRK thallium flux, FluoZin2; at 10 µM; stronger effect = higher value; submaximal glutamate (EC20) added with thallium
Whole data set: some 110,000 compounds, median “z-score” near -0.1, cut for the highest 2% near 2. The list comes from a sample in which the highest values are over-represented; it also holds close analogues and randomly drawn compounds.
z-score: recorded values
Keep the answer to the number alone.

Example results:
>  <Molecule>
Cc1cccc(Nc2nc(N)c([N+](=O)[O-])c(N3CCCC(C)C3)n2)c1 (stereo unspecified)

>  <Assay Metric>
z-score

>  <Experimental Result>
-0.0648

$$$$
>  <Molecule>
COc1ccc(S(=O)(=O)Nc2ccc(C)cc2)cc1OC

>  <Assay Metric>
z-score

>  <Experimental Result>
-0.166

$$$$
>  <Molecule>
O=C(CCC1COc2ccccc2O1)Nc1ccc(Cl)cn1 (stereo unspecified)

>  <Assay Metric>
z-score

>  <Experimental Result>
-0.27

$$$$
>  <Molecule>
COc1cc2cc(C#N)c(SCC(=O)N3CCOCC3)nc2cc1OC

>  <Assay Metric>
z-score

>  <Experimental Result>
0.593

$$$$

## Task For the molecule C=C(C)C(C)(C#CCN1CCCC1)OC(C)=O (stereo unspecified) , what z-score is on record?
## Result -0.061

## Task I would be grateful if you could share the reported z-score for "CC(C)(C)N1CC2(c3ccccc3)CN(C(C)(C)C)CC(c3ccccc3)(C1)C2=O" .
## Result 1.19

====

# System: Metabotropic glutamate receptor 8 (Rattus norvegicus) (UniProt P70579)
# Sequence (P70579 whole entry, looked up): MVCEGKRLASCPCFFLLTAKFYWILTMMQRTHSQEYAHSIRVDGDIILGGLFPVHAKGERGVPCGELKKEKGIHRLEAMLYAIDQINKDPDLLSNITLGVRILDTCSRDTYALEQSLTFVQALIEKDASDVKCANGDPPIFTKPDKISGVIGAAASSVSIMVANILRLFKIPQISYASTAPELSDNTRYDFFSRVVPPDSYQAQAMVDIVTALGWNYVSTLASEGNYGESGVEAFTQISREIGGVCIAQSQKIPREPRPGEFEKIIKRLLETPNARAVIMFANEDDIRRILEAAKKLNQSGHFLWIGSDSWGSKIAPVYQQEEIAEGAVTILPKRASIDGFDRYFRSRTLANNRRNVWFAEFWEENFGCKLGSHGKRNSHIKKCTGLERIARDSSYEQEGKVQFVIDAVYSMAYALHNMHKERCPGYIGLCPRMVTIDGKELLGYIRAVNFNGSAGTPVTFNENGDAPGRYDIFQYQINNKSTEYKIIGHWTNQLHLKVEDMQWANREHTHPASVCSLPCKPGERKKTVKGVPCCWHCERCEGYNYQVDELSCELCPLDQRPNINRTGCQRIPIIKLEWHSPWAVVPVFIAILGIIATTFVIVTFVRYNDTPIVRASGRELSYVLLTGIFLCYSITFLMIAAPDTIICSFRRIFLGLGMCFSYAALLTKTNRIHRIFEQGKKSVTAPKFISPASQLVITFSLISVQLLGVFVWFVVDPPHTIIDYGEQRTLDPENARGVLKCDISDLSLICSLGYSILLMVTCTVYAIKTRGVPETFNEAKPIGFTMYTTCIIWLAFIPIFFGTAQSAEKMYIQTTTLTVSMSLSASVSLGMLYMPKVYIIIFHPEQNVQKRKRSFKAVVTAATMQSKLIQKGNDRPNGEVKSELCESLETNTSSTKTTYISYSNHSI
# Method: mGluR8 Gi/Go-coupled signaling modulation – cell-based, rat, thallium flux, HTS, primary screen (AID 488969)
# Conditions Used: HEK293 rat mGluR8, GIRK thallium flux, FluoZin2; at 10 µM; stronger effect = higher value; submaximal glutamate (EC20) added with thallium
Whole data set: some 110,000 compounds, median “z-score” near -0.1, cut for the highest 2% near 2. The full list was thinned out, with the highest values kept by preference.
Hi, to clarify the labels: rule met covers z-score from -0.08 upward, rule not met covers anything below -0.08.

Take a look at these entries with their results.
>  <Molecule>
Cc1ccc(-n2c(=S)[nH]c3c(oc4ccccc43)c2=O)cc1

>  <Class Assignment>
rule met

$$$$
>  <Molecule>
O=C(O)c1ccc(NC(=S)NC2CCCCC2)cc1

>  <Class Assignment>
rule met

$$$$
>  <Molecule>
O=C(O)C1CCCCC1C(=O)NCc1cn2ccccc2n1 (stereo unspecified)

>  <Class Assignment>
rule not met

$$$$
>  <Molecule>
CN(CC(=O)Nc1cccnc1)S(=O)(=O)c1ccccc1

>  <Class Assignment>
rule not met

$$$$
>  <Molecule>
Cc1cc(C)cc(C(=O)NCC(=O)OCC(=O)N2c3ccccc3NC(=O)C2(C)C)c1

>  <Class Assignment>
rule not met

$$$$

Moving on to another molecule below.
## Task Could you tell me if the measured z-score of "O=C(O)CCCn1nc(C(F)(F)F)c2c1CCCCC2" reaches -0.08 or more?
## Result rule not met

====

The following molecules are listed with their measured z-score values.
# System: Metabotropic glutamate receptor 8 (Rattus norvegicus) (UniProt P70579)
# Method: mGluR8 Gi/Go-coupled signaling modulation – cell-based, rat, thallium flux, HTS, primary screen (AID 488969)
# Conditions Used: HEK293 rat mGluR8, GIRK thallium flux, FluoZin2; at 10 µM; stronger effect = higher value; submaximal glutamate (EC20) added with thallium
In all, about 110,000 compounds were measured (“z-score”: median about -0.1, highest 2% from about 2 on). The sample as a whole holds a higher share of the highest values than the screen did. The source made the active and inactive calls.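 How the source made its calls: active means z-score in the third read window above 3 or below -3; inactive means the rest.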

## Task For the molecule shown here, "COc1ccc(OC)c(Nc2ncnc3c2cnn3-c2ccccc2)c1" , give the reported z-score.
## Result -0.143

## Task // lookup z-score for CC(C)CCOP(=O)(c1ccc(N(C)C)cc1)C(O)c1ccccn1 (stereo not drawn)
## Result 5.74 (active)

## Task I have this molecule here, "COc1cccc(CNCCc2c[nH]c3ccccc23)c1OCc1ccc(F)cc1" , and I need its recorded z-score.
## Result 2.04

## Task // lookup z-score for "Cc1cccc(C)c1NC(=S)NC(=O)c1ccccc1F"
## Result 7.93 (active)

## Task Report z-score for "COc1ccccc1CCNCc1ccc(OC)c(OCc2ccccc2)c1" please.
## Result 0.696

## Task Which z-score is reported for this molecule? "O=C(N/N=C/c1ccc(Cl)cc1)Nc1ccccc1"
## Result -0.0155

## Task I would be grateful if you could share the reported z-score for "COc1cc(CNCCc2c[nH]c3ccccc23)ccc1OCc1ccc(F)cc1" .
## Result 3.41 (active)

## Task Reported z-score for "CC(C)(C)NC(=O)C(=O)NNC(=O)COc1ccc(Br)cc1" : what is it?
## Result 1.89

## Task Suppose we examine the molecule "Cc1ccc(S(=O)(=O)N2CCOCC2)cc1C(=O)OCC(=O)Nc1ccc2c(c1)OCO2" ; what z-score value has been reported?
## Result -0.412

## Task Fill blank: measured z-score of the molecule COc1cc(C2NC(=O)NC(O)(C(F)(F)F)C2C(=O)c2cccs2)ccc1O (stereo not drawn) is ____.
## Result -0.852

## Task Give its z-score value. Item: "Cc1ccccc1C(=O)NC(=S)Nc1ccc(Cc2ccncc2)cc1"
## Result -0.501

## Task // lookup z-score for "COc1cccc(CNCCc2c[nH]c3ccccc23)c1OCc1ccccc1"
## Result 1.32

====

# System: Metabotropic glutamate receptor 8 (Rattus norvegicus) (UniProt P70579)
# Method: mGluR8 Gi/Go-coupled signaling modulation – cell-based, rat, thallium flux, HTS, primary screen (AID 488969)
# Conditions Used: HEK293 rat mGluR8, GIRK thallium flux, FluoZin2; at 10 µM; stronger effect = higher value; submaximal glutamate (EC20) added with thallium
The full ranking holds about 110,000 compounds; the median of “z-score” is about -0.1, and the highest 2% start at about 2. The full list was thinned out, with the highest values kept by preference.
// 0 strictly below -0.2 in z-score; 1 otherwise

Solved cases (5 shown):
>  <Compound>
CCCCn1nnnc1NCc1cccs1

>  <Class Assignment>
0

$$$$
>  <Compound>
CC(C)(C)C(=O)Nc1cccc(C(=O)c2cccc(NC(=O)C(C)(C)C)c2)c1

>  <Class Assignment>
0

$$$$
>  <Compound>
O=[N+]([O-])c1cc(F)c(N2CCCCC2)cc1N1CCOCC1

>  <Class Assignment>
1

$$$$
>  <Compound>
O=C(NC1CCCc2ccccc21)c1cccc(S(=O)(=O)N2CCN(c3ccccc3)CC2)c1 (stereo unspecified)

>  <Class Assignment>
1

$$$$
>  <Compound>
Nc1ccc(SC(F)(F)F)cc1C(=O)c1ccccc1

>  <Class Assignment>
1

$$$$

## Task Evaluate CC(=O)N1CCN(S(=O)(=O)c2cccc(C(=O)NC3CCCc4ccccc43)c2)CC1 (stereo unspecified) : z-score at minimum -0.2?
## Result 1

## Task Assess whether reported z-score for "CC(C)(C)Nc1nc(NN)nc(NC(C)(C)C)n1" sits at -0.2 or higher.
## Result 0

## Task hey, is z-score for this one >= -0.2? CCOC(=O)CC1C(=O)NCCN1C(=O)c1cc2c(=O)n3ccccc3nc2s1 (stereo unspecified)
## Result 0

## Task Can "CCOc1ccc(-c2nc(C#N)c(NCc3ccc4c(c3)OCO4)o2)cc1" be said to have z-score at or above -0.2?
## Result 1

## Task Entry "CC(=O)Nc1ccc(S(=O)(=O)NNC(=O)c2ccc(C)cc2)cc1" : is its z-score no less than -0.2?
## Result 1

## Task Could you verify whether the entry "CCCn1nnnc1NCc1ccc(N2CCCC2)cc1" shows z-score of no less than -0.2?
## Result 0

====

# System: Metabotropic glutamate receptor 8 (Rattus norvegicus) (UniProt P70579)
# Method: mGluR8 Gi/Go-coupled signaling modulation – cell-based, rat, thallium flux, HTS, primary screen (AID 488969)
# Conditions Used: HEK293 rat mGluR8, GIRK (G protein-gated inwardly rectifying potassium channel) thallium flux, FluoZin2; at 10 µM; stronger effect = higher value; submaximal glutamate (EC20) added with thallium
Whole data set: some 110,000 compounds, median “z-score” near -0.1, cut for the highest 2% near 2. The list comes from a sample in which the highest values are over-represented; it also holds close analogues and randomly drawn compounds.
Assay Metric: z-score
Please state the value as a number alone, without comment.

>  <Compound>
O=C(Nc1ccc(Cl)cc1)Nc1ccccc1C(=O)NCc1ccco1

>  <z-score>
-0.534

$$$$
>  <Compound>
Cc1cc(C)nc(N/N=C/c2ccccc2OCc2cccc(Br)c2)n1

>  <z-score>
-0.027

$$$$
>  <Compound>
Cc1cc(C(=O)NCC(=O)OCC(=O)N(C)C2CCCCC2)ccc1[N+](=O)[O-]

>  <z-score>
0.828

$$$$

## Task Record request: z-score value, item "CCNC(=S)NS(=O)(=O)c1ccccc1"
## Result -0.195

## Task Form field: reported z-score of "CC(C)(C)CC(C)(C)NC1=CC(=O)OC12CCCCC2"
## Result -0.189

## Task # input compound: "CC(=O)N1C(=O)c2cccc3cccc(c23)C(=O)N1C(C)=O" ; wanted: its z-score
## Result 0.73

## Task If you can, please state the reported z-score value of "CCC(=O)n1nc(-c2ccccc2)nc1N" .
## Result -0.874

## Task What z-score value was documented for this compound, "COc1ccccc1NC(=O)c1cc(S(=O)(=O)N2CCC3(CC2)OCCO3)ccc1F" ?
## Result -0.251

## Task Query: z-score; subject: "CCCCNC(=S)N/N=C1\C(=O)c2cccc3cccc1c23"
## Result 3.16

## Task Which z-score is listed for "O=C(NCCSCc1ccco1)Nc1ccc(Cl)cc1" ?
## Result 0.159

## Task Would you mind telling me what z-score value was observed for CN(C)CCN1C(=O)C(O)=C(C(=O)c2cc3ccccc3o2)C1c1ccc(N(C)C)cc1 (centres undefined) ?
## Result -0.145

## Task Requested read-out: z-score. Entry: "CCOc1ccccc1NC(=O)c1cc(S(=O)(=O)N2CCC3(CC2)OCCO3)ccc1F"
## Result -0.432

## Task Returns the measured z-score for the input compound. Input: "CCOC(=O)c1c(CN2CCN(CCO)CC2)n(C)c2cc(Br)c(OC)cc12"
## Result 0.864
